Entries and their PBM binding z-score values follow.
- Tested on: RARb:RXRa (NR concentration 270 nM, RXRa partner concentration 90 nM)
- method: PBM binding z-score (relative to random genomic background probes); higher = stronger binding; sequences stand for … in GC…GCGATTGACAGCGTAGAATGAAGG
outcomeMeasure: PBM binding z-score

sequenceentry=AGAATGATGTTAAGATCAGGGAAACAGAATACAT outcomemeasure="PBM binding z-score" valueobserved=-0.436
sequenceentry=TGAATGAGGTTATAAGATCAGCGAACGTTGCAAA outcomemeasure="PBM binding z-score" valueobserved=1.06
sequenceentry=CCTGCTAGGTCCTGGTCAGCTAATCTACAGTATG outcomemeasure="PBM binding z-score" valueobserved=0.56
sequenceentry=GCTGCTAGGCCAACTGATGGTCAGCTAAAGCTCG outcomemeasure="PBM binding z-score" valueobserved=0.829
sequenceentry=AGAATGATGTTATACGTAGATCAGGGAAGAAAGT outcomemeasure="PBM binding z-score" valueobserved=-0.18
sequenceentry=GTACCAAGGTGAATAGGGCGTTGATGAGTAGGCG outcomemeasure="PBM binding z-score" valueobserved=1.5
sequenceentry=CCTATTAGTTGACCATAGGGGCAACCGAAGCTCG outcomemeasure="PBM binding z-score" valueobserved=0.983
sequenceentry=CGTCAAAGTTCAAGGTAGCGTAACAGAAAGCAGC outcomemeasure="PBM binding z-score" valueobserved=5.01
sequenceentry=TCTATTAGTTGACTAGGGCAACCGAAACAGCGGA outcomemeasure="PBM binding z-score" valueobserved=0.994
sequenceentry=ACTATTAGTTGAGAAGAGGGCAACCGATAGGTTG outcomemeasure="PBM binding z-score" valueobserved=1.32
sequenceentry=ATCTCTAGGTAAAGATAGTTCAGTGAGTGCAAAT outcomemeasure="PBM binding z-score" valueobserved=0.924
sequenceentry=TCTAGTTGGTCACGGAGGTCACACCCGACGGGTA outcomemeasure="PBM binding z-score" valueobserved=3.79
